Please provide measured GI50 for the entries that follow.
# Test system: KB
# procedure_details: Cytotoxicity against human KB cells after 24 hrs by SRB assay
Express your answer in nM, writing the number without its unit.

GI50 recorded for this compound, COc1ccc(-c2nnc(-c3ccc(F)cc3)o2)cc1OCCCOc1cc2c(cc1OC)C(=O)N1CCC[C@H]1C=N2 , is 150

GI50 recorded for this compound, COc1ccc(-c2nnc(-c3cc(OC)c(OC)c(OC)c3)o2)cc1OCCCOc1cc2c(cc1OC)C(=O)N1CCC[C@H]1C=N2 , is 140

GI50 recorded for this compound, COc1ccc(-c2nnc(-c3ccc(C(F)(F)F)cc3)o2)cc1OCCCCOc1cc2c(cc1OC)C(=O)N1CCC[C@H]1C=N2 , is 150

GI50 recorded for this compound, COc1ccc(-c2nnc(-c3ccc(OC)c(OCCCOc4cc5c(cc4OC)C(=O)N4CCC[C@H]4C=N5)c3)o2)cc1OC , is 110

GI50 recorded for this compound, COc1ccc(-c2nnc(-c3ccc(C(F)(F)F)cc3)o2)cc1OCCCCCOc1cc2c(cc1OC)C(=O)N1CCC[C@H]1C=N2 , is 110

GI50 recorded for this compound, COc1ccc(-c2nnc(-c3ccc(OC)c(OCCCCOc4cc5c(cc4OC)C(=O)N4CCC[C@H]4C=N5)c3)o2)cc1OC , is 110
